# Target System: porcine thrombin (pig, UniProt Q19AZ8;Q19AZ8 316-364;365-623)
# Assay Comment: filter binding
pKd: −log10 of the molar value.
Measurement Label: pKd

{"Binder": "RNAR9D-14T (XNA, 2'-fluoro on all C and U; purines 2'-OH) RNA: GGCGGUCGAUCACACAGUUCAAACGUAAUAAGCCAAUGUACGAGGCAGACGACUCGCC", "Experimental Result": 8.30}
